Tested on: 435261-313-R-J1-PDC complex spheroid viability
Experiment: Anticancer human tumor 435261-313-R-J1-PDC patient-derived colon adenocarcinoma cell line growth inhibition [GQUAD]
Details: curve of first compound; second compound 1 µM
Text: DNA G-quadruplex Stabilizer Agents in Combinations in Complex Spheroids A high-throughput screen of multi-cell type tumor spheroids was designed to identify active combinations of DNA G-quadruplex stabilizer agents and targeted small molecules. […] Compounds. […] If the clinical Cmax for an agent had not been determined, the highest concentration tested was 10 microM. […]
pIC50: −log10 of the molar value.
assay_endpoint: pIC50

O=c1[nH]cc(F)c(=O)[nH]1 + Cc1[nH]c2ccc(F)cc2c1-c1nc2c3cccnc3c3ncccc3c2[nH]1 ... 6.33
CC(=O)O[C@H]1C(=O)[C@@]2(C)[C@H]([C@H](OC(=O)c3ccccc3)[C@]3(O)C[C@H](OC(=O)[C@H](O)[C@@H](NC(=O)c4ccccc4)c4ccccc4)C(C)=C1C3(C)C)[C@]1(OC(C)=O)CO[C@@H]1C[C@@H]2O + Cc1[nH]c2ccc(F)cc2c1-c1nc2c3cccnc3c3ncccc3c2[nH]1 ... > 7.50
Cc1cccc(N(C)C(=O)C2C(O)CCN2c2nc(C)cc(C(F)(F)F)c2C#N)c1 (stereo not given) + CN(C)c1ccc(Nc2c3ccc(NC(=O)CCN4CCCC4)cc3nc3cc(NC(=O)CCN4CCCC4)ccc23)cc1 ... < 5.00
Nc1ccn(C2OC(CO)C(O)C2(F)F)c(=O)n1 (stereo not given) + Cc1[nH]c2ccc(F)cc2c1-c1nc2c3cccnc3c3ncccc3c2[nH]1 ... > 7.50
CC1COCCN1c1cc(C2(O)CC3CCC(C2)O3)c2cnn(-c3ccn[nH]3)c2n1 (stereo not given) + Cc1cnc(CNC(=O)c2c(=O)c3ccc(N4CCCN(C)CC4)nc3n3c2sc2ccccc23)cn1 ... > 7.50

Record pIC50 per entry; entries follow.
1. Cn1ncnc1[C@H]1c2n[nH]c(=O)c3cc(F)cc(c23)N[C@@H]1c1ccc(F)cc1 + CN(C)c1ccc(Nc2c3ccc(NC(=O)CCN4CCCC4)cc3nc3cc(NC(=O)CCN4CCCC4)ccc23)cc1
2. Cc1cccc(N(C)C(=O)C2C(O)CCN2c2nc(C)cc(C(F)(F)F)c2C#N)c1 (stereo not given) + Cc1cnc(CNC(=O)c2c(=O)c3ccc(N4CCCN(C)CC4)nc3n3c2sc2ccccc23)cn1
3. O=c1[nH]cc(F)c(=O)[nH]1 + CN(C)c1ccc(Nc2c3ccc(NC(=O)CCN4CCCC4)cc3nc3cc(NC(=O)CCN4CCCC4)ccc23)cc1
4. C#Cc1c(F)ccc2cc(O)cc(-c3ncc4c(N5CC6CCC(C5)N6)nc(OCC56CCCN5CC(F)C6)nc4c3F)c12 (stereo not given) + Cc1cnc(CNC(=O)c2c(=O)c3ccc(N4CCCN(C)CC4)nc3n3c2sc2ccccc23)cn1
5. COc1cc(C2c3cc4c(cc3C(OC3OC5COC(C)OC5C(O)C3O)C3COC(=O)C23)OCO4)cc(OC)c1O (stereo not given) + CN(C)c1ccc(Nc2c3ccc(NC(=O)CCN4CCCC4)cc3nc3cc(NC(=O)CCN4CCCC4)ccc23)cc1
6. COc1cc(C2c3cc4c(cc3C(OC3OC5COC(C)OC5C(O)C3O)C3COC(=O)C23)OCO4)cc(OC)c1O (stereo not given) + Cc1cnc(CNC(=O)c2c(=O)c3ccc(N4CCCN(C)CC4)nc3n3c2sc2ccccc23)cn1

Result:
1. < 6.50
2. > 7.50
3. < 5.00
4. > 7.50
5. < 5.00
6. > 7.50

For every item in the list below, what is its measured pIC50?
1. CC1COCCN1c1cc(C2(S(C)(=N)=O)CC2)nc(-c2ccnc3[nH]ccc23)n1 (stereo not given) + CN(C)c1ccc(Nc2c3ccc(NC(=O)CCN4CCCC4)cc3nc3cc(NC(=O)CCN4CCCC4)ccc23)cc1
2. COc1ccc([C@@H](O)c2cc(-c3ncnc4cc(N5CCOCC5)ccc34)c(F)cc2Cl)nn1 + CN(C)c1ccc(Nc2c3ccc(NC(=O)CCN4CCCC4)cc3nc3cc(NC(=O)CCN4CCCC4)ccc23)cc1
3. CC[C@@]1(O)C(=O)OCc2c1cc1n(c2=O)Cc2cc3c(CN(C)C)c(O)ccc3nc2-1 + CN(C)c1ccc(Nc2c3ccc(NC(=O)CCN4CCCC4)cc3nc3cc(NC(=O)CCN4CCCC4)ccc23)cc1
4. COc1cccc2c1C(=O)c1c(O)c3c(c(O)c1C2=O)CC(O)(C(=O)CO)CC3OC1CC(N)C(O)C(C)O1 (stereo not given) + CN(C)c1ccc(Nc2c3ccc(NC(=O)CCN4CCCC4)cc3nc3cc(NC(=O)CCN4CCCC4)ccc23)cc1
5. CC[C@@]1(O)C(=O)OCc2c1cc1n(c2=O)Cc2cc3c(CN(C)C)c(O)ccc3nc2-1 + Cc1cnc(CNC(=O)c2c(=O)c3ccc(N4CCCN(C)CC4)nc3n3c2sc2ccccc23)cn1
6. Cn1ncnc1[C@H]1c2n[nH]c(=O)c3cc(F)cc(c23)N[C@@H]1c1ccc(F)cc1 + Cc1cnc(CNC(=O)c2c(=O)c3ccc(N4CCCN(C)CC4)nc3n3c2sc2ccccc23)cn1
7. C=CC(=O)N1CCN(c2nc(=O)n(-c3c(C)ccnc3C(C)C)c3nc(-c4c(O)cccc4F)c(F)cc23)C(C)C1 (stereo not given) + CN(C)c1ccc(Nc2c3ccc(NC(=O)CCN4CCCC4)cc3nc3cc(NC(=O)CCN4CCCC4)ccc23)cc1

Result:
< 5.00
5.64
< 6.50
6.36
> 9.00
> 9.00
< 5.00

Could you report pIC50 for every entry in the following list?
1. CC(C)(O)C1CCC(Nc2ccc3ncc(-c4cccc(C(F)(F)F)c4)n3n2)CC1 (stereo not given) + Cc1[nH]c2ccc(F)cc2c1-c1nc2c3cccnc3c3ncccc3c2[nH]1
2. CC1COCCN1c1cc(-c2ccnn2C)c2ccnc(-c3ccn[nH]3)c2n1 (stereo not given) + Cc1cnc(CNC(=O)c2c(=O)c3ccc(N4CCCN(C)CC4)nc3n3c2sc2ccccc23)cn1

Result:
1: 6.64; 2: > 7.50

* * *

test system: 435261-313-R-J1-PDC complex spheroid viability; assay: Anticancer human tumor 435261-313-R-J1-PDC cell line growth inhibition [GQUAD]; details: second compound 0.1 µM; first compound 0.0316 µM; stronger effect = lower value;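 also: spheroids exposed to the agents for seven days before readout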;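 as to viability, T/C: percent of vehicle control viability with DMSO wells as 100%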
assay_endpoint: viability, T/C (%)
Give bare numbers, in %.

Below, each entry is followed by its recorded viability, T/C result.
CC(C)(O)C1CCC(Nc2ccc3ncc(-c4cccc(C(F)(F)F)c4)n3n2)CC1 (stereo not given) + Cc1[nH]c2ccc(F)cc2c1-c1nc2c3cccnc3c3ncccc3c2[nH]1 ... 80
Cn1ncnc1[C@H]1c2n[nH]c(=O)c3cc(F)cc(c23)N[C@@H]1c1ccc(F)cc1 + CN(C)c1ccc(Nc2c3ccc(NC(=O)CCN4CCCC4)cc3nc3cc(NC(=O)CCN4CCCC4)ccc23)cc1 ... 92.1
O=C(c1cc(Cc2n[nH]c(=O)c3ccccc23)ccc1F)N1CCN(C(=O)C2CC2)CC1 + CN(C)c1ccc(Nc2c3ccc(NC(=O)CCN4CCCC4)cc3nc3cc(NC(=O)CCN4CCCC4)ccc23)cc1 ... 101

For every listed record, write down its viability, T/C.
1. COc1cc(C2c3cc4c(cc3C(OC3OC5COC(C)OC5C(O)C3O)C3COC(=O)C23)OCO4)cc(OC)c1O (stereo not given) + Cc1cnc(CNC(=O)c2c(=O)c3ccc(N4CCCN(C)CC4)nc3n3c2sc2ccccc23)cn1
2. Cc1[nH]c2ccccc2c1CCNCc1ccc(/C=C/C(=O)NO)cc1 + CN(C)c1ccc(Nc2c3ccc(NC(=O)CCN4CCCC4)cc3nc3cc(NC(=O)CCN4CCCC4)ccc23)cc1

Result:
1: 86.6; 2: 59.7

* * *

tested on: 435261-313-R-J1-PDC complex spheroid viability; assay: Anticancer human tumor 435261-313-R-J1-PDC cell line growth inhibition [GQUAD]; conditions: second compound 3.16 µM; first compound 0.1 µM; stronger effect = lower value;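 also: spheroids exposed to the agents for seven days before readout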;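 as to viability, T/C: percent of vehicle control viability with DMSO wells as 100%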
assay_endpoint: viability, T/C (%)
Give bare numbers, in %.

Solved entries (count: 5):
COc1cccc2c1C(=O)c1c(O)c3c(c(O)c1C2=O)CC(O)(C(=O)CO)CC3OC1CC(N)C(O)C(C)O1 (stereo unspecified) + Cc1cnc(CNC(=O)c2c(=O)c3ccc(N4CCCN(C)CC4)nc3n3c2sc2ccccc23)cn1 ... 19.2
CC1COCCN1c1cc(C2(O)CC3CCC(C2)O3)c2cnn(-c3ccn[nH]3)c2n1 (stereo unspecified) + CN(C)c1ccc(Nc2c3ccc(NC(=O)CCN4CCCC4)cc3nc3cc(NC(=O)CCN4CCCC4)ccc23)cc1 ... 44.3
C=CC(=O)N1CCN(c2nc(=O)n(-c3c(C)ccnc3C(C)C)c3nc(-c4c(O)cccc4F)c(F)cc23)C(C)C1 (stereo unspecified) + Cc1[nH]c2ccc(F)cc2c1-c1nc2c3cccnc3c3ncccc3c2[nH]1 ... 27.6
COc1ccc([C@@H](O)c2cc(-c3ncnc4cc(N5CCOCC5)ccc34)c(F)cc2Cl)nn1 + Cc1[nH]c2ccc(F)cc2c1-c1nc2c3cccnc3c3ncccc3c2[nH]1 ... 30.1
Cc1cccc(N(C)C(=O)C2C(O)CCN2c2nc(C)cc(C(F)(F)F)c2C#N)c1 (stereo unspecified) + Cc1[nH]c2ccc(F)cc2c1-c1nc2c3cccnc3c3ncccc3c2[nH]1 ... 41.4

Turning now to a further compound:
Q: Give recorded viability, T/C. CC1COCCN1c1cc(C2(S(C)(=N)=O)CC2)nc(-c2ccnc3[nH]ccc23)n1 (stereo unspecified) + CN(C)c1ccc(Nc2c3ccc(NC(=O)CCN4CCCC4)cc3nc3cc(NC(=O)CCN4CCCC4)ccc23)cc1
Result: 55.8
